Where do the numbers come from? From ChEMBL document CHEMBL1150660.

For each of the molecules below, state its inhibition.
molecular target: UniProt:P30543; assay: Displacement of [3H]MSX-2 from A2A receptor in rat brain striatal membrane at 100 uM by liquid scintillation counting; assay type: cell membranes
Sequence (P30543 whole entry): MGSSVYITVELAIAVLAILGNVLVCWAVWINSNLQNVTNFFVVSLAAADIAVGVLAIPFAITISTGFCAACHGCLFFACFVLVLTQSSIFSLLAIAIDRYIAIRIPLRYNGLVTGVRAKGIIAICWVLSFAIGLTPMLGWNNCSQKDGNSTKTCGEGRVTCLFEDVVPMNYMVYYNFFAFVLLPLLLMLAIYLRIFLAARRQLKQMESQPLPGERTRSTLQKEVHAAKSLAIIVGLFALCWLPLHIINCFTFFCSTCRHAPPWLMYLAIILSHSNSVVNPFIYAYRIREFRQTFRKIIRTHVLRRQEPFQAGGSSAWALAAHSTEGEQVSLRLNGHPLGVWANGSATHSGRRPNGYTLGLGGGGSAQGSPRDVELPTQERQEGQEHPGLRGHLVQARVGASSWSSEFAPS
Just so you know, I need the unit written after the number.

Before answering, review these 3 worked examples.
INSERT INTO results (smiles_repr, experimental_value) VALUES
  ('COc1cc([C@H]2OC[C@](O)(Cc3ccc(O[C@@H]4O[C@H](CO)[C@@H](O)[C@H](O)[C@H]4O)c(OC)c3)[C@@H]2COC[C@H]2O[C@@](CO)(O[C@H]3O[C@H](CO)[C@@H](O)[C@H](O)[C@H]3O)[C@@H](O)[C@@H]2O)ccc1O', '49%'),
  ('COc1cc([C@H]2OC[C@H](Cc3ccc(O[C@@H]4O[C@H](CO)[C@@H](O)[C@H](O)[C@H]4O)c(OC)c3)[C@]2(O)CO)ccc1O', '11%'),
  ('COc1cc([C@H]2OC[C@](O)(Cc3ccc(O[C@@H]4O[C@H](CO)[C@@H](O)[C@H](O)[C@H]4O)c(OC)c3)[C@]2(O)CO)ccc1O', '0%');

Task: Which measured inhibition value corresponds to Cn1c(=O)c2c(ncn2C)n(C)c1=O ?
Output: 58%
